Test system: UACC-62
Test: NCI tumour cell line growth inhibition, 48 h
Activity calls are given as the source filed them. No stated cut-off is given here; in the data, active = GI50 up to about 1.1 µM and inactive = higher.
reportedEndpoint: GI50

Use these answered entries as a reference point.
compound: O=c1[nH]c(=O)n(C2OC(CO)C(O)C2O)cc1Oc1ccccc1 (configuration not stated)
reportedEndpoint: GI50
endpointValue: > 100 µM (inactive)
--
compound: CCCCCC(=O)n1[nH]c(=O)n(-c2ccc(OC)cc2)c1=O
reportedEndpoint: GI50
endpointValue: > 100 µM (inactive)
--
compound: COC1(OC)CCc2c(sc3ncnc(Nc4cccc(Br)c4)c23)C1
reportedEndpoint: GI50
endpointValue: 47.2 µM (inactive)
--
compound: N#CCCN(CCC#N)c1ccc(C(/N=N/c2ccc(Cl)cc2)=N\c2ccccc2)cc1
reportedEndpoint: GI50
endpointValue: 6.49 µM (inactive)
--
compound: CC(C)(c1cn(Cc2ccccc2)c2ccccc12)c1cn(Cc2ccccc2)c2ccccc12
reportedEndpoint: GI50
endpointValue: > 100 µM (inactive)

Req: Requested read-out: GI50. Entry: Oc1cccc(-c2cc(O)c3cc4c(cc3n2)OCO4)c1
Resp: 2.42 µM (inactive)

Req: Requested read-out: GI50. Entry: C(=N\Cc1ccccc1)/c1ccccc1-c1ccccc1/C=N/Cc1ccccc1
Resp: > 7.23 µM (inactive)

Req: Requested read-out: GI50. Entry: CC1=CC=NN2C(=O)[C@H](C)C2C1 (some centres not stated)
Resp: > 100 µM (inactive)

Req: Requested read-out: GI50. Entry: Cc1cc(N)ccc1C=O
Resp: > 100 µM (inactive)

Req: Requested read-out: GI50. Entry: Cc1cc2c(c3c1c1ccccc1n3C)C(=O)c1ccccc1C2=O
Resp: > 100 µM (inactive)

Req: Requested read-out: GI50. Entry: COc1ccc(-c2nc(Nc3ccccc3)sc2Cc2sc(Nc3ccccc3)nc2-c2ccc(OC)cc2)cc1
Resp: > 100 µM (inactive)

Req: Requested read-out: GI50. Entry: CC(C)/C(Cl)=N\OC(=O)Nc1ccc(F)c([N+](=O)[O-])c1
Resp: 17.6 µM (inactive)
